Target: Human TRPV3 (Homo sapiens, UniProt Q8NET8)
Sequence (Q8NET8 whole entry): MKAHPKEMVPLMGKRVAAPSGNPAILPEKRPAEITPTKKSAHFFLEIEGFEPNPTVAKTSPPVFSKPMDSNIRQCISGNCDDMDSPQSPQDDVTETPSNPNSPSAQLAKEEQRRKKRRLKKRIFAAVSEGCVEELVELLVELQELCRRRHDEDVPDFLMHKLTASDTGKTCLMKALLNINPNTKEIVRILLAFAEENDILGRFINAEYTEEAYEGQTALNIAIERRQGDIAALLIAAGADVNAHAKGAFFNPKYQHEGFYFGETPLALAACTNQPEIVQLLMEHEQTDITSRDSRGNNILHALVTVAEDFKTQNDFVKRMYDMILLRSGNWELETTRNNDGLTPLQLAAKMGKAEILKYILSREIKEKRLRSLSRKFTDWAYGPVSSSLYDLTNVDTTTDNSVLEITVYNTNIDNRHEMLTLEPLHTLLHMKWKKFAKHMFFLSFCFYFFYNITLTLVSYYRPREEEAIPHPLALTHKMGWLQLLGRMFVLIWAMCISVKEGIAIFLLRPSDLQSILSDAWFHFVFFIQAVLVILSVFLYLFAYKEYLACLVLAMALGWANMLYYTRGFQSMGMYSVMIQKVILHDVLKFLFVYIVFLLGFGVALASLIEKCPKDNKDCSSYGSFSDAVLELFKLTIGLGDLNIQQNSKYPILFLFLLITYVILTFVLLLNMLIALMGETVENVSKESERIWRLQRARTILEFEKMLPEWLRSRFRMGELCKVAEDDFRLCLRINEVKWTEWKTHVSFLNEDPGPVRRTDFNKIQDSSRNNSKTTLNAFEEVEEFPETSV
Test: Screening for TRPV3 antagonist using the 45Calcium uptake assay (inhibition of 2-APB induced cellular uptake of radioactive calcium)
Settings: human TRPV3 expressing CHO cells; 2-APB 500 μM; class symbols
pIC50: −log10 of the molar value.
measuredEndpoint: pIC50

In the examples that follow, each entry is paired with its recorded pIC50.
[
  {
    "molecule": "CCOCCOc1c(/C=C/c2nc3sccn3c(=O)c2-c2ccc(OC(F)(F)F)cc2)cccc1OC",
    "pIC50": "> 6.60"
  },
  {
    "molecule": "COc1cccc(/C=C/c2nc3sccn3c(=O)c2-c2ccc(C(F)(F)F)cc2)c1OCC1CC1",
    "pIC50": "> 6.60"
  }
]

Exercise: Return reported pIC50; argument: COCCOc1c(/C=C/c2nc3sccn3c(=O)c2-c2ccc(OC(F)(F)F)cc2)cccc1OC
Key: 6.30 to 6.60

Exercise: Try COc1cccc(/C=C/c2nc3sccn3c(=O)c2-c2ccc(C#N)cc2)c1OCC1CCC1 next.
Key: > 6.60

Exercise: Try CCCCCOc1c(/C=C/c2nc3sccn3c(=O)c2-c2ccc(OC(F)(F)F)cc2)cccc1OC next.
Key: > 6.60

Exercise: Try COc1cccc(/C=C/c2nc3sccn3c(=O)c2-c2ccc(OC(F)(F)F)cc2)c1OC1CCCC1 next.
Key: > 6.60

Exercise: Try COCCOc1c(/C=C/c2nc3sccn3c(=O)c2-c2ccc(C(F)(F)F)cc2)cccc1OC next.
Key: 6.30 to 6.60

Exercise: Try COc1cccc(/C=C/c2nc3sccn3c(=O)c2-c2ccccc2)c1OCC1CC1 next.
Key: 5.00 to 6.00

Exercise: Try CCCOc1c(/C=C/c2nc3sccn3c(=O)c2-c2ccc(C(F)(F)F)cc2)cccc1OC next.
Key: 6.00 to 6.30

Exercise: Try COc1cccc(/C=C/c2nc3sccn3c(=O)c2-c2ccc(N(C)C)cc2)c1OCC1CC1 next.
Key: 6.30 to 6.60

Exercise: Try COc1cccc(/C=C/c2nc3sc(Cl)cn3c(=O)c2-c2ccc(C#N)cc2)c1OCC(C)(C)C next.
Key: 6.00 to 6.30

====

Target: Human TRPV3 (Homo sapiens, UniProt Q8NET8)
Construct: expressed in transfected cells; host or cells: CHO cells (G-418 selection)
Test: Screening for TRPV3 antagonist using the 45Calcium uptake assay (inhibition of 2-APB induced cellular uptake of radioactive calcium)
Format: cell-based
Conditions: 1.0 μM test compound; human TRPV3 expressing CHO cells; 2-APB 500 μM; read-out: Percentage inhibition at 1.0 μM
measuredEndpoint: inhibition at 1 µM (%)
Dear colleague, please return just the value in %, with no unit written.

In the examples that follow, each entry is paired with its recorded inhibition at 1 µM.
[
  {
    "molecule": "CCCOc1c(/C=C/c2nc3sccn3c(=O)c2-c2ccc(OC(F)(F)F)cc2)cccc1OC [Example 54]",
    "inhibition at 1 µM / %": 72.8
  },
  {
    "molecule": "COCCOc1c(/C=C/c2nc3sccn3c(=O)c2-c2ccc(C(F)(F)F)cc2)cccc1OC [Example 31]",
    "inhibition at 1 µM / %": 66.9
  },
  {
    "molecule": "CCCCCOc1c(/C=C/c2nc3sccn3c(=O)c2-c2ccc(OC(F)(F)F)cc2)cccc1OC [Example 55]",
    "inhibition at 1 µM / %": 81.7
  }
]

Exercise: Return reported inhibition at 1 µM; argument: CCOCCOc1c(/C=C/c2nc3sccn3c(=O)c2-c2ccc(C#N)cc2)cccc1OC [Example 15]
Key: 73.1
